TEST_SUMMARY: soluble on expression in E. coli; label from the status in PepcDB or PDB records
QUANTITY_NAME: soluble on expression in E. coli

MMSLVIAFISCSKSDEDKVIKEENPKITSDTFSAVIKDGFTGENGEDLILYKNLKNIVVGDYIPYDITIKDEDSANTKYILTPTRIGEKNHQYFQIDYDVYLDNDKGEKVRVNAITFDKIGKHRFYIKPLVPGTFKLSFVLQREQNGQKVQDIKFPTLNFNVVKITVYKTQIFIGLYEVRFYIEDGENETDIYLSPDPSVKQTFVSKYNDMTYTGDFNVKEFCKVGYYSSTIKTITSITIIQKREGEEEYRIEYYNIPIP	not soluble
MNDVPHRPQVKTRKALTPLLEIRNLTKSFDGQHAVDDVSLTIYKGEIFALLGASGCGKSTLLRMLAGFEPPSSGQIMLDGVDLAHVPPYQRPINMMFQSYALFPHMTVEQNIAFGLKQDKLPKAEITSRVNEMLGLVHMQEFAKRKPHQLSGGQRQRVALARSLAKRPKLLLLDEPMGALDKKLRDRMQLEVVDILERVGVTCVMVTHDQEEAMTMAGRIAIMNRGKFVQIGEPEEIYEHPTTRYSAEFIGSVNVFEGLLKAREEDGLVIDAPGLVHPLKVDADASVVDNVPVYVALRPEKIMLCESPPADGYNFAVGEVAHIAYLGDLSIYHVRLKSGQMISAQLQNAHRYRKGLPTWGDEVRLCWEADSCVVLTV	not soluble

* * *

TEST_SUMMARY: soluble on expression in E. coli; label from the status in PepcDB or PDB records
QUANTITY_NAME: soluble on expression in E. coli

MHKSIAVFEVEGGNDKQFNGHRKDTLPIVDAIKEKGWHAEVVFYRPEWSEGLFEYVSQNFDGYISRVNPGNIPGGEKGYFDLLTKLSEAGLVGMSTPAEMMAYGAKDALVKLNDTDLVPSDTAAYYDVETFHNTFPTSLSYGERVLKQNRGSTGSGIWRVQLEDKELAASVAPGTALPLNTKLRCTEAVDNHTEIRELGEFMDFCDQYIVGDNGMLVDMRFMPRIVEGEIRILMVGPHPVFVVHKKPAAGGDNFSATLFSGAKYTYDKPEAWQELVDMFAAARPVIAEKLGGDNIPLIWTADFMLADGENGEDTYVLGEINCSCVGFTSELDMGIQELVAQEAVERVEKKHA	not soluble
MHYSQMRWMFFCLTALLHGSFIVNAAKILVYCPSISKSHVLLCSKYADLLHNAGHDTVLFIPSYSKLLDNYDGAKHAKVWRLHNVTEAYDTKLGTLANVMENSHIGFIDRLTFDADFWIDMCADLLGKLPEMQHIIDYKFDLVIYNEIDPCTPAIVRLFNIPKTVLLSSEAIMDKVAWNLGKPMTTFAES	not soluble

* * *

TEST_SUMMARY: soluble on expression in E. coli; label from the status in PepcDB or PDB records
QUANTITY_NAME: soluble on expression in E. coli

Use the examples below as a reference point.
MGSDKIHHHHHHMKRKTKLDKKSKWVLDMKFGVSSLVFLPESLTSSMEKIAEHNFDAWEIVCEGTHYLSPKNIKYLMELRDRYEVEIVVHAPFSDLNPASMNERVRKLTVECIRDAIEGAFELDSEVVVVHPGYIPELWSNYVSEILDNNFSTLSEIVEIAEDYGIKIGLENMPNFRGVLGITPESLLEIVKDIDSKNLGITFDIGHANTAGNPAEFVEKLQNIGIGIIHVHAHDNNGYDDEHLKIGEGNINFIEVLEKLKEIGYDGVISIENKNIRDAVKSKEILKEYLEIVNEKVAEKEKIEE	not soluble
AWKGEVLANNEAGQVTSIIYNPGDVITIVAAGWASYGPTQKWGPQGDREHPDQGLICHDAFCGALVMKIGNSGTIPVNTGLFRWVAPNNVQGAITLIYNDVPGTYGNNSGSFSVNIGKDQS	soluble
STSTNNELTVSMMGTSTKEEVVSKVDEEDDDSSSDSDMDYGSDSEWAGYNVLAETEPEWDVDSFDGHEFKINPRVRQMYRSQELYDKYYNNRLKAFENKGFLSDHLNGIYDVYLDEKMDGYNSTRDFMAELANVCVKKHNETKGNTLELVNVVRATERGAATWRLYITFMAREFPDGPLVEYQAKVIKFLGVKDPFPVLCRAAPKPGI	soluble
MSLLSEENEFLFDLNEIPEKTVYSDDGDEFLFDLNKIPPREETVNSSDEDFADHLHRRNQATKRKKKLRKRPKVFRHIEKVISFSFYLVLRASSFLFLDLNWGLRMDTDPYQELRMDTDHMTYEQLLQLCNNMGYENSGVKASNIDRCLRNTKPSEFQSLADKICCICQDGFQKRAGVGKLNCGHNFHVNCVKPWILTKK	soluble
MTIIAGTVVKGKQLGRKLGFPTANVDAKIHGLRNGVYGVLATVNHQFHLGVMNIGVKPTVGSNLEKTLEIFLFDFHRDIYGEKIECSILFKIREERRFDSLESLTKQIKKDISCVAKRFELIGIMAPNKKESLLSHQELNLPDLCFYKKCNNLYGVNRGVYNVIDNWFFEYGITQVAYRRIYILSFLSFLKEDNPKVSSKYIRFGAGGLADKLNRFISSYVEESEENILGLEHHHHHH	soluble

Now examine the next entry.
[in] Specify reported soluble on expression in E. coli for the sequence shown: GPGSMSEEHANDSTLRVKVATINDKGEEVYASSLSHDGTYLAAVFGDGALVIFNPSTFSALDSSAAGKGYDNVPCTAVQWLESSEGGLYRLVSVSSAGGVFIWQWDGAALHRTNRVPEKGNEITCLAVSPECDMFITAGSDRTVRLYDADGTLKANLQMAHDESGVSRLAHTSRIFSVRFVSQGVAVSGGWGGPLQVWDLKANEARVEIRGAQVSSDGIELITGTNCVLVASRRQKEQLQVFDCVSGQELADDSARLSMALGELIPLSSRLCKTSGLVWTITSSPSKVLVTSYSTGQLIASYDSAYDLMNISIFEGLPNNAYISCAEGKLLFATVKQ
[out] not soluble

* * *

TEST_SUMMARY: soluble on expression in E. coli; label from the status in PepcDB or PDB records
QUANTITY_NAME: soluble on expression in E. coli

MGSDKIHHHHHHMTEKFNRQRAENLIAIANQFAQLGKVTAVKAFGSGNINDTFLVTLDSSKEQHFVLQRINTQVFRQPKLIMQNMRTFTEHVHKRLQHTPLNRRWEVPRVLLTKDAQDHCQDSDGSFWRAISFIEGSQSFDTMRDRSQAKEIGYALGMFHNLISDLPPEKLADTLQGFHITPLYLQHYEEVLAKTSASQSSEVNYCLQFVSDRQAFAHILENAKAEGKLPLRLMHGDPKINNVMFDTVTQQAVSVIDLDTVKPGLVHYDIGDCLRSGCNQAGEETENWESVHFDPGLCQGILQGYLSVAKAFLTENDYAYIYDAIRLIAFELGLRFFADYLAGNVYFKVKHPEHNLARAIVQFKLTESIESQETQIRNIIKDMK	not soluble
MGSDKIHHHHHHMTANEKKDLAHARVSASDGADAWVRFTVAGKRFDMPVVINASTRSLGASIIVNRMLSRRAPNDARPLMLVTQHITSRMADDLIAKGIPFLDTAGNAYLHEPEATIMIVGRDKPALNLKNPTSRSTTPKGLRVTFALLTQPGLVHAPYRTIADRSAVALNTVNLAMDDLIYRGLVVHKGARRVIADRRRLIEEWASLFPTRLRPKLSPCRFTSWTKESNWWSRPEILDIDARLGGEAGADILTHEIKPASLTIYSHRGITPRLMLNGMLRPDDRGNVEVLETFWPAKAEEGWNLPHREVVHPLLIYSDLITSGDDRNRAVAQTIYDRYLAKERA	not soluble

* * *

TEST_SUMMARY: soluble on expression in E. coli; label from the status in PepcDB or PDB records
QUANTITY_NAME: soluble on expression in E. coli

MNPIAVTLLTGFLGAGKTTLLRHILNEQHGYKIAVIENEFGEVSVDDQLIGDRATQIKTLTNGCICCSRSNELEDALLDLLDNLDKGNIQFDRLVIECTGMADPGPIIQTFFSHEVLCQRYLLDGVIALVDAVHADEQMNQFTIAQSQVGYADRILLTKTDVAGEAEKLHERLARINARAPVYTVTHGDIDLGLLFNTNGFMLEENVVSTKPRFHFIADKQNDISSIVVELDYPVDISEVSRVMENLLLESADKLLRYKGMLWIDGEPNRLLFQGVQRLYSADWDRPWGDEKPHSTMVFIGIQLPEEEIRAAFAGLRK	soluble
MAAEDELQLPRLPELFETGRQLLDEVEVATEPAGSRIVQEKVFKGLDLLEKAAEMLSQLDLFSRNEDLEEIASTDLKYLLVPAFQGALTMKQVNPSKRLDHLQRAREHFINYLTQCHCYHVAEFELPKTMNNSAENHTANSSMAYPSLVAMASQRQAKIQRYKQKKELEHRLSAMKSAVESGQADDERVREYYLLHLQRWIDISLEEIESIDQEIKILRERDSSREASTSNSSRQERPPVKPFILTRNMAQAKVFGAGYPSLPTMTVSDWYEQHRKYGALPDQGIAKAAPEEFRKAAQQQEEQEEKEEEDDEQTLHRAREWDDWKDTHPRGYGNRQNMGLEHHHHHH	soluble
